System: Xanthomonas campestris
RUN DESCRIPTION: Antibacterial activity against Xanthomonas campestris pvs by disk diffusion method at 25 ug/disk
Assay type: functional
CONDITIONS: read-out: IZ
Label rule, in plain words: zone of inhibition at 25 µg/disc of 10 mm and up is rule met, under 10 mm is rule not met.

>  <SMILES INPUT>
O=C(Cn1nnc2ccccc21)c1ccc(Cl)cc1

>  <TESTED ON>
Xanthomonas campestris

>  <ASSIGNED LABEL>
rule not met

$$$$
>  <SMILES INPUT>
CCCn1nnc2ccccc21

>  <TESTED ON>
Xanthomonas campestris

>  <ASSIGNED LABEL>
rule not met

$$$$
>  <SMILES INPUT>
COc1cc(Br)c(Cn2nnc3ccccc32)cc1OC

>  <TESTED ON>
Xanthomonas campestris

>  <ASSIGNED LABEL>
rule met

$$$$
>  <SMILES INPUT>
N#Cc1ccccc1-c1ccc(Cn2nnc3ccccc32)cc1

>  <TESTED ON>
Xanthomonas campestris

>  <ASSIGNED LABEL>
rule met

$$$$
>  <SMILES INPUT>
Cc1cc2c(cc1Cn1nnc3ccccc31)OCO2

>  <TESTED ON>
Xanthomonas campestris

>  <ASSIGNED LABEL>
rule met

$$$$
>  <SMILES INPUT>
CCCCn1nnc2ccccc21

>  <TESTED ON>
Xanthomonas campestris

>  <ASSIGNED LABEL>
rule met

$$$$
>  <SMILES INPUT>
O=[N+]([O-])c1ccc(Cn2nnc3ccccc32)cc1

>  <TESTED ON>
Xanthomonas campestris

>  <ASSIGNED LABEL>
rule not met

$$$$
